PROCEDURE SUMMARY: Serum and colonic concentrations in IL-12/IL-18 studies S-1 and S-2
Type: in vivo, C57BL/6 mice
CONDITION LABEL: C57BL/6, mouse, serum, po, 25 mg/kg, S-1; mice, oral 25 mg/kg; mean±SEM; read-out: Serum 30 min post dosing

# SAMPLE SMILES, concentration at 30 min [nM]
records = [
    ("CC(C)(O)CNC(=O)Cc1nc2cnc3[nH]ccc3c2n1[C@H]1CC[C@H](CC#N)CC1", 21.8),
]

###

PROCEDURE SUMMARY: Tissue distribution in rats after oral administration
Assay type: in vivo, male Sprague-Dawley rats
CONDITION LABEL: male, Sprague-Dawley, rat, duodenum tissue, PO 25 mg/kg, 3 h, average, N = 3, read-out: Duod. Tissue concentration

# COMPOUND, UNITS OF MEASURE, concentration at 3 h
measured = [
    ("CC(C)(O)CNC(=O)Cc1nc2cnc3[nH]ccc3c2n1[C@H]1CC[C@H](CC#N)CC1 [Compound of Formula I]", "ng/g", 3840),
]

Attribution: patent US12390451B2
